// reported GI50 per item
Tested on: MDA-N
Assay Protocol: NCI tumour cell line growth inhibition, 48 h
Active and inactive are the calls of the source. No stated cut-off is given here; in the data, active = GI50 up to about 1.1 µM and inactive = higher.

{"Compound": "O=c1ccn([C@@H]2O[C@H](CO)[C@@H](O)[C@H]2F)c(=O)[nH]1", "Value Type": "GI50", "Result": "> 100 µM (inactive)"}
{"Compound": "COc1cc(COC(=O)N(C)[C@@H](Cc2ccccc2)C(=O)O)c([N+](=O)[O-])cc1OC", "Value Type": "GI50", "Result": "> 100 µM (inactive)"}
{"Compound": "Cc1c2ccncc2c(C)c2c1sc1ccccc12", "Value Type": "GI50", "Result": "13.1 µM (inactive)"}
{"Compound": "O=C(O)CNC(=O)c1ccccc1O [SALICYLURIC ACID]", "Value Type": "GI50", "Result": "> 100 µM (inactive)"}
{"Compound": "O=C1O/C(=C\\c2ccc(O)c(Br)c2)C(c2ccc(O)cc2)=C1Cl", "Value Type": "GI50", "Result": "26.1 µM (inactive)"}
{"Compound": "CC(=O)c1cc2c(s1)C(=O)c1ccsc1C2=O", "Value Type": "GI50", "Result": "0.0802 µM (active)"}
{"Compound": "CC(=O)Oc1c2c(c3n(c1=O)CCCC3)C(=O)N(c1ccccc1)C2=O", "Value Type": "GI50", "Result": "52.8 µM (inactive)"}
{"Compound": "COc1cccc2c1OC(c1ccc(Cl)cc1)C([N+](=O)[O-])=C2 (stereo not drawn)", "Value Type": "GI50", "Result": "1.42 µM (inactive)"}
{"Compound": "O=C(Oc1ccc2c(c1)CN(Cc1ccccc1)CO2)c1ccccc1", "Value Type": "GI50", "Result": "16.8 µM (inactive)"}
{"Compound": "C=C(C)C1CCC2(C)C1CCC1(C)C2CCC2C3(C)C4OC(OC4=O)C(C)(C)C3CCC21C (stereo not drawn)", "Value Type": "GI50", "Result": "> 100 µM (inactive)"}

Which GI50 is listed for COC(=O)C(CCC1C=CN(S(=O)(=O)c2ccc(C)cc2)C1)/N=C/c1ccccc1 (stereo not drawn) ?
38.3 µM (inactive)

Which GI50 is listed for `CC(=O)Nc1sc([N+](=O)[O-])cc1S(=O)(=O)c1ccc(Cl)cc1` ?
3.92 µM (inactive)

Which GI50 is listed for CC[C@H](C)[C@H]1NC(=O)[C@@H](NC(=O)[C@@H](CC(C)C)N(C)C(=O)C2CCCN2C(=O)[C@H](C)O)[C@@H](C)OC(=O)[C@H](Cc2ccc(OC)cc2)N(C)C(=O)[C@@H]2CCCN2C(=O)[C@H](CCCCNC(=O)OCc2ccccc2)NC(=O)[C@H](C)C(=O)[C@H](C(C)C)OC(=O)C[C@@H]1O (stereo partly drawn) ?
5.68 µM (inactive)

Which GI50 is listed for `S=c1[nH]c2c(Cl)c(Cl)c(Cl)c(Cl)c2[nH]1` ?
17.3 µM (inactive)
